Listed compounds paired with reported pIC50
# Assay system: human TLR9 (Homo sapiens, UniProt Q9NR96)
# Sequence (Q9NR96 26-1032): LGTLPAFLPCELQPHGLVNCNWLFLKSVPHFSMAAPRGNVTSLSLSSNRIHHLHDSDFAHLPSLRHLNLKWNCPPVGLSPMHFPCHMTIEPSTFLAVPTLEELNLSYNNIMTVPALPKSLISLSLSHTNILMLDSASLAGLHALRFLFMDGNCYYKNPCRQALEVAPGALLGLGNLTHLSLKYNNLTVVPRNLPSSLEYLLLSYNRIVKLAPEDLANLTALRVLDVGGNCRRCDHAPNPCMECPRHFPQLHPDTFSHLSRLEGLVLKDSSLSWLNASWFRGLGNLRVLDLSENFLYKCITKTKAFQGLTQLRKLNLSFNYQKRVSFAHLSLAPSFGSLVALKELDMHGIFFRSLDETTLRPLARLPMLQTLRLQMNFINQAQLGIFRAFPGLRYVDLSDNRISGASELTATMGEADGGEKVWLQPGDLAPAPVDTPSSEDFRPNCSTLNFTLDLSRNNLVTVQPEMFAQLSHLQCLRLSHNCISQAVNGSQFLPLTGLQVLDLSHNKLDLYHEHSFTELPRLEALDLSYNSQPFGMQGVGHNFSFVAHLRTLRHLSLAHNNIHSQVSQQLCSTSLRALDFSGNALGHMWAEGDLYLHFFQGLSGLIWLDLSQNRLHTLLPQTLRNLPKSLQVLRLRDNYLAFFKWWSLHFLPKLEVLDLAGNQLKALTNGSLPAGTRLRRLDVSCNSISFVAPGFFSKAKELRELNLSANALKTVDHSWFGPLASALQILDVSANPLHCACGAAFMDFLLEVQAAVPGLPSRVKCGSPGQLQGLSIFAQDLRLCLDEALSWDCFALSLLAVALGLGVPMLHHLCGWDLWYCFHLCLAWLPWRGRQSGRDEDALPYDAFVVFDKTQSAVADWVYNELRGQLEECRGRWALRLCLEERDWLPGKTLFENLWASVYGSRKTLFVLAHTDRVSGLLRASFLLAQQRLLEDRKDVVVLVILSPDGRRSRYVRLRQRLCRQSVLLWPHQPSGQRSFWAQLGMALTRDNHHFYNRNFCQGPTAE
# Assay comment: TLR9 inhibition reporter assay (HEK-Blue SEAP reporter, ODN2006 stimulation)
# Settings: HEK-Blue cells overexpressing human TLR9, SEAP reporter, ODN2006 5 nM, 22 hour incubation
Scale: negative log10 of molar concentration, which is what pIC50 denotes.

- Smiles record: "Cc1c(-c2[nH]c3ccc(C4CCN(CC(=O)N(C)C)CC4)cc3c2C(C)C)cn(C)c(=O)c1Cl"
  Value observed: 4.78
- Smiles record: "CNC(=O)CN1CCC(c2ccc3[nH]c(-c4cc(C)c(=O)n(C)c4C)c(C(C)C)c3c2)CC1"
  Value observed: 4.98

Next compound, pIC50 to be filled in.
So what does the record say about pIC50 for "COC(=O)c1cc(-c2[nH]c3ccc(C4CCNCC4)cc3c2C(C)C)cn(C)c1=O" ?
5.61
